# Tested on: J774 cells
# TEST METHOD NOTES: Unspecific cytotoxicity assay on J774 macrophages (resazurin)
# Assay type: cell-based, mouse
# MEASUREMENT CONDITIONS: 48 h, mean ± SD, n = 3
VALUE KIND: CC50

Documented CC50 of NNC(=S)Nc1cccc2ccccc12 : > 256 µM

* * *

# System: Trypanosoma cruzi Y (DTU TcII) epimastigotes
# TEST METHOD NOTES: Y strain epimastigote susceptibility assay (resazurin)
# Type: cell-based
# MEASUREMENT CONDITIONS: T. cruzi Y strain epimastigotes, 48 h, mean ± SD, n = 3
VALUE KIND: IC50 (µM)
State the answer as a number, implicitly in µM.

Documented IC50 of NNC(=S)Nc1cccc2ccccc12 [Compound 31] : 33.6

* * *

# Tested on: Vero cells
# TEST METHOD NOTES: Unspecific cytotoxicity assay in Vero cells (resazurin)
# Type: cell-based, African green monkey
# MEASUREMENT CONDITIONS: Vero cells, 24 h; brackets: 95% confidence interval
Exercise: for every item that follows, state its recorded CC50.

Documented CC50 of Oc1ccc(/C=N/NC(=S)Nc2cccc3ccccc23)cc1O [Compound 65] : 175 µM

Documented CC50 of COc1ccc(/C=N/NC(=S)Nc2cccc3ccccc23)cc1 [Compound 64] : > 300 µM

Documented CC50 of Oc1ccc(/C=N/NC(=S)Nc2ccc(Br)cc2)cc1O [Compound 49] : > 300 µM

Documented CC50 of COc1ccc(/C=N/NC(=S)Nc2ccc(I)cc2)cc1 [Compound 51] : > 300 µM

Documented CC50 of NNC(=S)Nc1cccc2ccccc12 [Compound 31] : > 300 µM

Documented CC50 of Oc1ccc(/C=N/NC(=S)Nc2cccc3ccccc23)cc1 [Compound 63] : 275 µM

* * *

# Test system: Trichomonas vaginalis
# TEST METHOD NOTES: Trichomonacidal in vitro assay (resazurin)
# Type: cell-based
# MEASUREMENT CONDITIONS: Trichomonas vaginalis, 24 h, isolate JH31A#4, 24 h; brackets: 95% confidence interval
VALUE KIND: log10 of IC50 (log10 of the value in µM)
Kindly note that the scale is log10 and the underlying IC50 is in µM.

Documented log10 of IC50 of COc1ccc(/C=N/NC(=S)Nc2ccccc2[N+](=O)[O-])cc1 : 1.53

Documented log10 of IC50 of O=[N+]([O-])c1ccc(/C=N/NC(=S)Nc2ccc([N+](=O)[O-])cc2)cc1 : 2.18

Documented log10 of IC50 of NNC(=S)Nc1cccc([N+](=O)[O-])c1 : 1.28

Documented log10 of IC50 of NNC(=S)Nc1ccc(F)cc1 : 2.30

Documented log10 of IC50 of NNC(=S)Nc1ccc(Cl)cc1 : 1.69

Documented log10 of IC50 of Cc1ncc([N+](=O)[O-])n1CCO [Metronidazole, metronidazole, reference compound] : 0.43

Documented log10 of IC50 of Oc1ccc(/C=N/NC(=S)Nc2ccc(Br)cc2)cc1 : 1.72

Documented log10 of IC50 of Oc1ccc(/C=N/NC(=S)Nc2ccccc2)cc1 : 1.87

Documented log10 of IC50 of Oc1ccc(/C=N/NC(=S)Nc2ccc(Br)cc2)cc1O : 1.05

Documented log10 of IC50 of COc1ccc(/C=N/NC(=S)Nc2ccccc2)cc1 : 2.22

Documented log10 of IC50 of COc1ccc(/C=N/NC(=S)Nc2ccc(OC)cc2)cc1 : 2.41

Documented log10 of IC50 of O=[N+]([O-])c1ccc(NC(=S)N/N=C/c2ccc(O)cc2)cc1 : 1.56

Documented log10 of IC50 of O=[N+]([O-])c1cccc(NC(=S)N/N=C/c2ccc(O)cc2)c1 : 1.39

Documented log10 of IC50 of Cc1ccc(NC(=S)N/N=C/c2ccc(O)cc2)cc1 : 1.82

Documented log10 of IC50 of O=[N+]([O-])c1cccc(NC(=S)N/N=C/c2ccc(O)c(O)c2)c1 : 1.87

Documented log10 of IC50 of COc1ccc(/C=N/NC(=S)Nc2ccc(Br)cc2)cc1 : 1.74

Documented log10 of IC50 of Oc1ccc(/C=N/NC(=S)Nc2ccc(F)cc2)cc1O : 2.35

Documented log10 of IC50 of Cc1ccc(NC(=S)N/N=C/c2ccc(O)c(O)c2)cc1 : 1.91

Documented log10 of IC50 of COc1ccc(/C=N/NC(=S)Nc2ccc(I)cc2)cc1 : 1.17

Documented log10 of IC50 of O=[N+]([O-])c1ccc(NC(=S)N/N=C/c2ccc(O)c(O)c2)cc1 : 2.11

Documented log10 of IC50 of Oc1ccc(/C=N/NC(=S)Nc2ccccc2)cc1O : 1.95

Documented log10 of IC50 of NNC(=S)Nc1ccc([N+](=O)[O-])cc1 : 2.03

Documented log10 of IC50 of Oc1ccc(/C=N/NC(=S)Nc2ccc(I)cc2)cc1O : 1.40

Documented log10 of IC50 of Oc1ccc(/C=N/NC(=S)Nc2ccc(I)cc2)cc1 : 1.63

Documented log10 of IC50 of COc1ccc(/C=N/NC(=S)Nc2ccc(C)cc2)cc1 : 2.35

Documented log10 of IC50 of COc1ccc(/C=N/NC(=S)Nc2ccc([N+](=O)[O-])cc2)cc1 : 2.19

Documented log10 of IC50 of O=[N+]([O-])c1ccccc1NC(=S)N/N=C/c1ccc(O)cc1 : 1.97

Documented log10 of IC50 of O=[N+]([O-])c1ccccc1NC(=S)N/N=C/c1ccc(O)c(O)c1 : 2.12

Documented log10 of IC50 of COc1ccc(NC(=S)NN)cc1 : 2.41

Documented log10 of IC50 of NNC(=S)Nc1ccc(I)cc1 : 1.88

Documented log10 of IC50 of COc1ccc(/C=N/NC(=[Se])Nc2ccc(I)cc2)cc1 : 1.04

Documented log10 of IC50 of COc1ccc(/C=N/NC(=S)Nc2ccc(Cl)cc2)cc1 : 1.51

Documented log10 of IC50 of COc1ccc(NC(=S)N/N=C/c2ccc(O)cc2)cc1 : 1.81

Documented log10 of IC50 of COc1ccc(/C=N/NC(=S)Nc2cccc([N+](=O)[O-])c2)cc1 : 1.72

Documented log10 of IC50 of Oc1ccc(/C=N/NC(=[Se])Nc2ccc(Br)cc2)cc1O : 1.05

* * *

Exercise: for every item that follows, state its recorded CC50 at 24 h.
# System: Vero cells
# TEST METHOD NOTES: Unspecific cytotoxicity assay in Vero cells (resazurin)
# Type: cell-based, African green monkey
# MEASUREMENT CONDITIONS: African green monkey, Vero CCL-81 cells (kidney epithelial cells), Vero cells, 24 h; brackets: 95% confidence interval

Documented CC50 at 24 h of NNC(=S)Nc1cccc([N+](=O)[O-])c1 : > 300 µM

Documented CC50 at 24 h of Cc1ncc([N+](=O)[O-])n1CCO [Metronidazole, metronidazole, reference compound] : > 300 µM

Documented CC50 at 24 h of Oc1ccc(/C=N/NC(=S)Nc2ccc(Br)cc2)cc1O : ≥ 275 µM

Documented CC50 at 24 h of COc1ccc(/C=N/NC(=S)Nc2ccc(I)cc2)cc1 : ≥ 275 µM

Documented CC50 at 24 h of COc1ccc(/C=N/NC(=S)Nc2ccc(Cl)cc2)cc1 : > 300 µM

Documented CC50 at 24 h of COc1ccc(/C=N/NC(=S)Nc2ccccc2[N+](=O)[O-])cc1 : > 300 µM

Documented CC50 at 24 h of O=[N+]([O-])c1ccc(NC(=S)N/N=C/c2ccc(O)cc2)cc1 : 254 µM

Documented CC50 at 24 h of Oc1ccc(/C=N/NC(=S)Nc2ccc(I)cc2)cc1O : > 300 µM

Documented CC50 at 24 h of O=[N+]([O-])c1cccc(NC(=S)N/N=C/c2ccc(O)cc2)c1 : 169 µM

Documented CC50 at 24 h of NNC(=S)Nc1ccc(Cl)cc1 : > 300 µM

Documented CC50 at 24 h of Oc1ccc(/C=N/NC(=S)Nc2ccc(I)cc2)cc1 : > 300 µM

* * *

# System: Trichomonas vaginalis
# TEST METHOD NOTES: Trichomonacidal in vitro assay (resazurin)
# Type: cell-based
# MEASUREMENT CONDITIONS: isolate JH31A#4, 24 h; brackets: 95% confidence interval
Exercise: for every item that follows, state its recorded pIC50.
Recall that pIC50 is obtained by taking minus log10 of the concentration measured in molar.

Documented pIC50 of Oc1ccc(/C=N/NC(=S)Nc2cccc3ccccc23)cc1 : 4.83

Documented pIC50 of COc1ccc(/C=N/NC(=S)Nc2ccc(I)cc2)cc1 : 4.83

Documented pIC50 of COc1ccc(/C=N/NC(=S)Nc2cccc3ccccc23)cc1 : 4.52

Documented pIC50 of Oc1ccc(/C=N/NC(=S)Nc2cccc3ccccc23)cc1O : 4.70

Documented pIC50 of Oc1ccc(/C=N/NC(=S)Nc2ccc(Br)cc2)cc1O : 4.79

Documented pIC50 of NNC(=S)Nc1cccc2ccccc12 : 4.52
